meta.source: patent EP4696688A1

Entries and their hsF
Target: human CYP11B1 (Homo sapiens, UniProt P15538)
Construct: The main elements of an expression plasmid include ORF of human CYP11B1 or human CYP11B2; expressed in transfected cells
Sequence (P15538 25-503): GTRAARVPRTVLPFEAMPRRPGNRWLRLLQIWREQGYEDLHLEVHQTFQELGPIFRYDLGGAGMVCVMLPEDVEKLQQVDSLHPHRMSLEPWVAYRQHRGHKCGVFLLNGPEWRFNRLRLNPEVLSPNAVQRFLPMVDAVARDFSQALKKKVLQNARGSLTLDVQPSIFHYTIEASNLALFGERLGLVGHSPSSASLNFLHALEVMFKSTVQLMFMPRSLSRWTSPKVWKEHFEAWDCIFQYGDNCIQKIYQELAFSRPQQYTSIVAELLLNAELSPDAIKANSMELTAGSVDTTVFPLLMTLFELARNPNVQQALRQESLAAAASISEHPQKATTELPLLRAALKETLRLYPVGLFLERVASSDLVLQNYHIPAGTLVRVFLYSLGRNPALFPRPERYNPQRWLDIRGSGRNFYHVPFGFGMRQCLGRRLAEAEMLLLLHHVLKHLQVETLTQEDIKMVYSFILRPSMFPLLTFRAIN
Test: G-402 cell enzyme experiment, CYP11B1 (cortisol product, HTRF), selectivity versus CYP11B2
Assay type: cell-based
Conditions: human selective factor: ratio of CYP11B1 EC50 to CYP11B2 EC50; G-402 cells
Write the number in x without appending the unit.

>>> df
                                 smiles_str  measured_attribute  measurement
0  Cn1c(=O)sc2cc(-c3cncc(N4CC5(CN(C(=O)C6(C#N)CC6)C5)C4)n3)ccc21                 hsF         3103

Q: Looking for the measured hsF of COc1ccc2cc(-c3cncc(N4CC5(CN(C(=O)c6cnn(C)c6)C5)C4)n3)ccc2n1 , can you help?
Result: 3999

---

Test: Pharmacokinetic determination in rats
Assay type: in vivo
Conditions: rat; male SD rats, plasma, oral administration (PO) 5 mg/kg
Procedure: SD rats were used as test animals to study the pharmacokinetic behavior of the compounds of the present invention in rats (plasma) after oral administration. 3 SD rats per group, male. Formulation of drug for oral administration: 0.5% CMC-Na (1% Tween 80) 5 g of sodium carboxymethyl cellulose (CMC-Na, viscosity: 800-1200 Cps) was weighed and dissolved in 1000 mL of purified water, and 10 g of Tween 80 was added. These materials were uniformly mixed to form a clear solution. […]
MEASURED ATTRIBUTE: Tmax

>>> print(df.to_string())
                                   compound  measurement
0  [2H]C([2H])([2H])n1cc(C(=O)N2CC3(C2)CN(c2cncc(-c4ccc5nc(OC)ccc5c4)c2)C3)cn1 [Example 78]          4 h
1  CCC(=O)N[C@@H]1CCCc2c(-c3ccc4c(c3)COC(=O)N4C)cncc21 [Example 1-A]          1 h
2  CCC(=O)N[C@@H]1CCCc2c(-c3ccc4c(cnn4C)c3)cncc21 [Example 60]          2 h

Q: Data request, read-out Tmax, for COc1ccc2cc(-c3cncc(N4CC5(CN(C(=O)c6cnn(C)c6)C5)C4)n3)ccc2n1 [Example 79]
Result: 4 h

Q: Return reported Tmax; argument: Cn1cc(C(=O)N2CCC3(CC2)CN(c2cncc(-c4ccc5c(c4)sc(=O)n5C)c2)C3)cn1 [Example 103]
Result: 4 h

Q: Would you kindly share the measured Tmax for COc1ccc2cc(-c3cncc(N4CC5(CN(C(=O)c6ccc(C)nc6)C5)C4)n3)ccc2n1 [Example 100] ?
Result: 2 h

Q: Returns the measured Tmax for the input compound. Input: COc1ccc2cc(-c3cncc(N4CC5(CN(C(=O)c6cnn(C)c6)C5)C4)c3)ccc2n1 [Example 23]
Result: 2 h

Q: Consider the compound Cn1cc(C(=O)N2CC3(C2)CN(c2cncc(-c4ccc5c(c4)sc(=O)n5C)c2)C3)cn1 [Example 67] and give its measured Tmax.
Result: 4 h

Q: Given Cn1cc(C(=O)N2CC(Oc3cncc(-c4ccc5c(c4)sc(=O)n5C)c3)C2)cn1 [Example 91] , state its recorded Tmax.
Result: 1 h

---

Test: Pharmacokinetic determination in rats
Type: in vivo
Settings: rat; male SD rats, plasma, oral administration (PO) 5 mg/kg
So basically: AUC(0-inf) at 20000 ng·h/mL or higher? That is met. Lower than 20000 ng·h/mL? That is not met.

Please review the entries below; each comes with its answer.
>>> df
                                 smiles_str  classification
0  COc1ccc2cc(-c3cncc(N4CC5(CN(C(=O)c6cnn(C)c6)C5)C4)c3)ccc2n1             met
1  Cn1cc(C(=O)N2CC3(C2)CN(c2cncc(-c4ccc5c(c4)sc(=O)n5C)c2)C3)cn1             met
2  COc1ccc2cc(-c3cncc(N4CC5(CN(C(=O)c6ccc(C)nc6)C5)C4)n3)ccc2n1             met
3  CCC(=O)N[C@@H]1CCCc2c(-c3ccc4c(cnn4C)c3)cncc21             met
4  Cn1cc(C(=O)N2CCC3(CC2)CN(c2cncc(-c4ccc5c(c4)sc(=O)n5C)c2)C3)cn1             met

Q: Evaluate [2H]C([2H])([2H])n1cc(C(=O)N2CC3(C2)CN(c2cncc(-c4ccc5nc(OC)ccc5c4)c2)C3)cn1 : AUC(0-inf) at minimum 20000 ng·h/mL?
Result: met

Q: Is AUC(0-inf) at least 20000 ng·h/mL? Consider CCC(=O)N[C@@H]1CCCc2c(-c3ccc4c(c3)COC(=O)N4C)cncc21
Result: met

Q: Given COc1ccc2cc(-c3cncc(N4CC5(CN(C(=O)c6cnn(C)c6)C5)C4)n3)ccc2n1 , state whether its AUC(0-inf) is at least 20000 ng·h/mL.
Result: not met

Q: Identify whether the reported AUC(0-inf) of the following compound is 20000 ng·h/mL or greater: Cn1cc(C(=O)N2CC(Oc3cncc(-c4ccc5c(c4)sc(=O)n5C)c3)C2)cn1
Result: not met

---

Each item that follows carries a reported hsF.
Molecular target: human CYP11B1 (Homo sapiens)
Construct: The main elements of an expression plasmid include ORF of human CYP11B1 or human CYP11B2; expressed in transfected cells
Experiment: G-402 cell enzyme experiment, CYP11B1 (cortisol product, HTRF), selectivity versus CYP11B2
Assay type: cell-based
Conditions: human selective factor: ratio of CYP11B1 EC50 to CYP11B2 EC50; G-402 cells
The answer is to be given in x; state only the numeric part.

>>> df
                                 smiles_str  measurement
0  CCC(=O)N[C@@H]1CCCc2c(-c3ccc4c(cnn4C)c3)cncc21          170
1  COc1ccc2cc(-c3cncc(N4CC5(CN(C(=O)c6ccc(C)nc6)C5)C4)n3)ccc2n1         1048
2  Cn1c(=O)sc2cc(-c3cncc(N4CC5(CN(C(=O)C6(C#N)CC6)C5)C4)c3)ccc21         1372
3  COc1ccc2cc(-c3cncc(N4CC5(CC(NC(=O)c6cnn(C)c6)C5)C4)c3)ccc2n1         1912

Q: So what does the record say about hsF for Cn1cc(C(=O)N2CC3(C2)CN(c2cncc(-c4ccc5c(ccc(=O)n5C)c4)c2)C3)cn1 ?
Result: 585

Q: Consider the molecule shown here: COc1ccc2cc(-c3cncc(N4CC5(CN(C(=O)C6CC6)C5)C4)c3)ccc2n1 What is its recorded hsF?
Result: 842

---

Target: human CYP11B2 (Homo sapiens, UniProt P19099)
Construct: The main elements of an expression plasmid include ORF of human CYP11B1 or human CYP11B2
Sequence (P19099 25-503): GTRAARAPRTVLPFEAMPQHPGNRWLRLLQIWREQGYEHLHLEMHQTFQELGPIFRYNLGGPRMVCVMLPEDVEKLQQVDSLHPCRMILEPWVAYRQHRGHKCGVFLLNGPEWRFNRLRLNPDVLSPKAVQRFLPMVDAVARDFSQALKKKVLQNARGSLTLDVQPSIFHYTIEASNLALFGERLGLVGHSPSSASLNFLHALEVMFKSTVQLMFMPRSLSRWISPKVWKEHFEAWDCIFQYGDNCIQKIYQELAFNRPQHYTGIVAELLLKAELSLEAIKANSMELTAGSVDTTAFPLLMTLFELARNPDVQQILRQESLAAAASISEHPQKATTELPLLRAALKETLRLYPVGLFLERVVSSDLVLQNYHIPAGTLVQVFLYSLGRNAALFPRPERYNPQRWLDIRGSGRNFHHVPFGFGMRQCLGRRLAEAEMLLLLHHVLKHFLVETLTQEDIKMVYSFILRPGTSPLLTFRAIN
Test: G-402 cell enzyme experiment, CYP11B2 (aldosterone product, HTRF)
Details: G-402 cells stably expressing human CYP11B2, 1 µM 11-deoxycorticosterone, 16 h
MEASURED ATTRIBUTE: pEC50
On this scale, pEC50 is minus log10 of a concentration expressed in M (mol/L).

                                   compound                              assay_target  measurement
0  Cc1ccc(C(=O)N2CC3(C2)CN(c2cncc(-c4ccc5c(c4)sc(=O)n5C)c2)C3)cn1 [Example 101]  human CYP11B2 (Homo sapiens, UniProt P19099)         7.37
1  [2H]C([2H])([2H])N(C(=O)c1cnn(C)c1)C1CCN(c2cncc(-c3ccc4nc(OC)ccc4c3)c2)CC1 [Example 72]  human CYP11B2 (Homo sapiens, UniProt P19099)         8.00

Q: Query: pEC50; subject: CCS(=O)(=O)N1CC(Oc2cncc(-c3ccc4c(c3)sc(=O)n4C)c2)C1 [Example 90]
Result: 7.64

Q: What value of measured pEC50 is listed for COc1ccc2cc(-c3cncc(N4CC5(CN(C(=O)C6CC6)C5)C4)c3)ccc2n1 [Example 82] ?
Result: 7.74

Q: // pEC50 lookup, key: COc1ccc2cc(-c3cncc(N4CC5(CN(C(=O)c6cnn(C7CC7)c6)C5)C4)c3)ccc2n1 [Example 43]
Result: 7.30

---

Assay: Pharmacokinetic determination in rats
Assay type: in vivo
Details: rat; male SD rats, plasma, oral administration (PO) 5 mg/kg; read-out: MRT0-∞
MEASURED ATTRIBUTE: MRT inf (h)
Kindly provide the numeric value in h only, without the unit symbol.

Worked examples follow.
>>> print(df.to_string())
                                 smiles_str  measurement
0  CCC(=O)N[C@@H]1CCCc2c(-c3ccc4c(c3)COC(=O)N4C)cncc21          3.7
1  COc1ccc2cc(-c3cncc(N4CC5(CN(C(=O)c6ccc(C)nc6)C5)C4)n3)ccc2n1          4.1
2  Cn1cc(C(=O)N2CC3(C2)CN(c2cncc(-c4ccc5c(c4)sc(=O)n5C)c2)C3)cn1          3.9

Q: Given Cn1cc(C(=O)N2CC(Oc3cncc(-c4ccc5c(c4)sc(=O)n5C)c3)C2)cn1 , state its recorded MRT inf.
Result: 4.2

Q: What value of measured MRT inf is listed for COc1ccc2cc(-c3cncc(N4CC5(CN(C(=O)c6cnn(C)c6)C5)C4)n3)ccc2n1 ?
Result: 4.5

Q: MRT inf lookup needed for Cn1cc(C(=O)N2CCC3(CC2)CN(c2cncc(-c4ccc5c(c4)sc(=O)n5C)c2)C3)cn1 , thanks.
Result: 5.6

Q: Which value of MRT inf has been reported for CCC(=O)N[C@@H]1CCCc2c(-c3ccc4c(cnn4C)c3)cncc21 in the records?
Result: 3.1

Q: Recorded MRT inf for COc1ccc2cc(-c3cncc(N4CC5(CN(C(=O)c6cnn(C)c6)C5)C4)c3)ccc2n1 , please?
Result: 3.8

Q: Endpoint output: MRT inf of [2H]C([2H])([2H])n1cc(C(=O)N2CC3(C2)CN(c2cncc(-c4ccc5nc(OC)ccc5c4)c2)C3)cn1 . Value?
Result: 4.7
